- Test system: Zea mays
- procedure details: Pre-emergence herbicidal activity, ZEAMX
- Assay type: in vivo
- measurement parameters: Application pre-emergence, 1000 g/Ha, evaluated after 13 days, scale 0-5
measured attribute: ZEAMX damage score
Reply: number alone, nothing else.

1) CN1CC(O)N(c2cc(C(F)(F)Cl)ccn2)C1=O (stereo not drawn)	2
2) COCc1cccc(-c2cnc(N3C(=O)N(C)CC3O)cc2C(F)(F)F)c1 (stereo not drawn)	1
3) CN1CC(O)N(c2cc(C(F)(F)F)c(-c3ccccc3)cn2)C1=O (stereo not drawn)	4
4) CN1CC(O)N(c2cc(C(F)(F)F)ccn2)C1=O (stereo not drawn)	3
5) C=Cc1cnc(N2C(=O)N(C)CC2O)cc1C(F)(F)F (stereo not drawn)	2

Attention now turns to another entry.
Cc1ccc(-c2cnc(N3C(=O)N(C)CC3O)cc2C(F)(F)F)cn1 (stereo not drawn) has a reported ZEAMX damage score of 3
